# experimental.system: BRAF (Homo sapiens, UniProt P15056)
# Construct: purchased Invitrogen
# Sequence (P15056 whole entry): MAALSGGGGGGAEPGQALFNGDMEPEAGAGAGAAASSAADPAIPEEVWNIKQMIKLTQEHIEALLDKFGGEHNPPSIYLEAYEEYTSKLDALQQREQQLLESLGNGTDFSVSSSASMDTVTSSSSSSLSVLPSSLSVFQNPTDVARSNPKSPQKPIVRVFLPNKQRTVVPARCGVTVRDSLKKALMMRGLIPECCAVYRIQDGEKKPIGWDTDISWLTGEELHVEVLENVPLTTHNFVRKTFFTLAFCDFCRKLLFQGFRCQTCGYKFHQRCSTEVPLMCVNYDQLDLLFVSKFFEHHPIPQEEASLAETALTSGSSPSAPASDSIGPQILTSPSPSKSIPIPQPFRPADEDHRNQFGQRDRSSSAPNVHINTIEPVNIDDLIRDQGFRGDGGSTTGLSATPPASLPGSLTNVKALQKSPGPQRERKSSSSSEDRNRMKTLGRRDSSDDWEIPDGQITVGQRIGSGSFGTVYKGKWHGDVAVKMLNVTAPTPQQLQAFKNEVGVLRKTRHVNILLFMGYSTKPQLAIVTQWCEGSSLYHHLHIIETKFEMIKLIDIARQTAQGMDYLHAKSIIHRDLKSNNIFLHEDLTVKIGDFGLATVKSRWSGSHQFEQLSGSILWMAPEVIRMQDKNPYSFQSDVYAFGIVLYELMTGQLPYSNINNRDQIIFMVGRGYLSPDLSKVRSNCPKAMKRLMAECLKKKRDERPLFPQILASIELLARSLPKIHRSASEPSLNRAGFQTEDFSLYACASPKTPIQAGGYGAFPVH
# measurement.protocol: In vitro kinase assay (Z'-LYTE), BRAF
# Type: biochemical
# settings: read-out: % of inhibition of the kinase compared to the control
measurement.label: inhibition at 0.1 µM

Q: Entry `Cc1ccc(NC(=O)c2ccc(CN3CC[C@H](N(C)C)C3)c(C(F)(F)F)c2)cc1CNc1cnc2[nH]c(C(=O)O)cc2c1` : reported inhibition at 0.1 µM = ?
A: < 50%

Q: Next up: CNC(=O)c1cc2cc(NCc3cc(NC(=O)c4ccc(CN5CCC(N(C)C)C5)c(C(F)(F)F)c4)ccc3C)cnc2[nH]1 (centres unmarked)
A: ≥ 50%

Q: Next up: `CC(=O)c1cc2cc(NCc3cc(NC(=O)c4ccc(CN5CCN(C)CC5)c(C(F)(F)F)c4)ccc3F)cnc2[nH]1`
A: < 50%

Q: Next up: CC(=O)c1cc2cc(NCc3cc(NC(=O)c4ccc(CN5CCC(N(C)C)C5)c(F)c4)ccc3C)cnc2[nH]1 (centres unmarked)
A: ≥ 50%

New cases:
Q: Entry `CC(=O)c1cc2cc(NCc3cc(NC(=O)Nc4cccc(C(F)(F)F)c4)ccc3C)cnc2[nH]1` : reported inhibition at 0.1 µM = ?
A: < 50%

---

The following compounds are listed with their measured inhibition at 0.1 µM values.
# experimental.system: EGFR (ErbB1) (Homo sapiens, UniProt P00533)
# Construct: purchased Invitrogen
# Sequence (P00533 25-1210): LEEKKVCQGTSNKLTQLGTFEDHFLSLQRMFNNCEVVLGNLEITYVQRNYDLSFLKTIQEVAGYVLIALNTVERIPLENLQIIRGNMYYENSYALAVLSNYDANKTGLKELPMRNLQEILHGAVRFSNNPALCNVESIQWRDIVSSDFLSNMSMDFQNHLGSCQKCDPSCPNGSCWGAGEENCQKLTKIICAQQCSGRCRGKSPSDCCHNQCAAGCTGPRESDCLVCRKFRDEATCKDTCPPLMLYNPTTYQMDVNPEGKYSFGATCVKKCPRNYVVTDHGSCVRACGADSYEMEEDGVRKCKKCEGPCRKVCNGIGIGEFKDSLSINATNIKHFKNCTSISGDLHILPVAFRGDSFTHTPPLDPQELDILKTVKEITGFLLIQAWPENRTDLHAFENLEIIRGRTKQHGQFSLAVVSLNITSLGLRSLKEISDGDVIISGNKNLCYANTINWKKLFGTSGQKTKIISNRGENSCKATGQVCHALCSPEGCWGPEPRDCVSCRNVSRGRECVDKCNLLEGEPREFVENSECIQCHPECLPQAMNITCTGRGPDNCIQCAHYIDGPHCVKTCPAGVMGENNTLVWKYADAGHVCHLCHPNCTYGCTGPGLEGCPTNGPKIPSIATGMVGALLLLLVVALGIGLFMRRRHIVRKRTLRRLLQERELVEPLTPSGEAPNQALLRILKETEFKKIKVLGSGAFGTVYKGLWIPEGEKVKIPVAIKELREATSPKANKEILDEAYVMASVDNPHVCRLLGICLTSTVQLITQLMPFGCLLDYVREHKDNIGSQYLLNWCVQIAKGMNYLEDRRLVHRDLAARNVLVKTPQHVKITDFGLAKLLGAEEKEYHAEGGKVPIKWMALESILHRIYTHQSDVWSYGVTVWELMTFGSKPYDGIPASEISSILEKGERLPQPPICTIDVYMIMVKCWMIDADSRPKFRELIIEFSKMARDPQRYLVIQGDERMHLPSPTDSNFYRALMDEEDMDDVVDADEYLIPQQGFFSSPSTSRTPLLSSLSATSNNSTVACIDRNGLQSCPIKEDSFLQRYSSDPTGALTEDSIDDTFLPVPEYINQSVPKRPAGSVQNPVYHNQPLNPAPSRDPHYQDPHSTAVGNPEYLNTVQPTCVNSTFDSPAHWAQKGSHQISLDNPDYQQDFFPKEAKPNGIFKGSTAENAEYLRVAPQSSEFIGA
# measurement.protocol: In vitro kinase assay (Z'-LYTE), EGFR (ErbB1)
# Format: biochemical
# settings: read-out: % of inhibition of the kinase compared to the control

These recorded examples may help you get a feel for the data.
Q: Request - read-out inhibition at 0.1 µM | tested on EGFR (ErbB1) (Homo sapiens, UniProt P00533) | compound CNC(=O)c1cc2cc(NCc3cc(NC(=O)c4ccc(CN5CCN(C)CC5)cc4)ccc3C)cnc2[nH]1 [OR0753]
A: ≥ 50%

Q: Next up: CC(=O)c1cc2cc(NCc3cc(NC(=O)c4ccnc(C(F)(F)F)c4)ccc3C)cnc2[nH]1 [OR0887]
A: < 50%

Q: Next up: CC(=O)c1cc2cc(NC(=O)c3cc(NC(=O)c4ccc(CN5CCN(C)CC5)cc4)ccc3C)cnc2[nH]1 [OR0780]
A: < 50%

Q: Next up: CNC(=O)c1cc2cc(NCc3cc(NC(=O)c4ccc(CN5CC[C@H](N(C)C)C5)c(C(F)(F)F)c4)ccc3C)cnc2[nH]1 [OR0813]
A: ≥ 50%

Q: Next up: CC(=O)c1cc2cc(NCc3cc(NC(=O)c4ccc(CN5CCC(N(C)C)C5)c(C(F)(F)F)c4)ccc3C)cnc2[nH]1 (stereo not shown) [OR0718]
A: ≥ 50%

New cases:
Q: Request - read-out inhibition at 0.1 µM | tested on EGFR (ErbB1) (Homo sapiens, UniProt P00533) | compound CC(=O)c1cc2cc(NCc3cc(NC(=O)c4ccncn4)ccc3C)cnc2[nH]1 [OR0988]
A: < 50%

Q: Next up: Cc1ccc(NC(=O)c2ccc(CN3CCC(N(C)C)C3)c(C(F)(F)F)c2)cc1CNc1cnc2[nH]c(C(=O)O)cc2c1 (stereo not shown) [OR0528]
A: ≥ 50%

Q: Next up: CC(=O)c1cc2cc(NCc3cc(NC(=O)c4cc(-n5cnc(C)c5)cc(C(F)(F)F)c4)ccc3C)cnc2[nH]1 [OR0719]
A: < 50%

Q: Next up: CC(=O)c1cc2cc(NCc3cc(NC(=O)Nc4cccnc4)ccc3C)cnc2[nH]1 [OR0897]
A: < 50%

Q: Next up: CC(=O)c1cc2cc(NCc3cccc(NC(=O)c4cncc(C(F)(F)F)c4)c3)cnc2[nH]1 [OR0950]
A: < 50%

---

The following molecules are listed with their measured inhibition at 0.1 µM values.
# experimental.system: KDR (VEGFR2) (Homo sapiens, UniProt P35968)
# Construct: purchased Invitrogen
# Sequence (P35968 20-1356): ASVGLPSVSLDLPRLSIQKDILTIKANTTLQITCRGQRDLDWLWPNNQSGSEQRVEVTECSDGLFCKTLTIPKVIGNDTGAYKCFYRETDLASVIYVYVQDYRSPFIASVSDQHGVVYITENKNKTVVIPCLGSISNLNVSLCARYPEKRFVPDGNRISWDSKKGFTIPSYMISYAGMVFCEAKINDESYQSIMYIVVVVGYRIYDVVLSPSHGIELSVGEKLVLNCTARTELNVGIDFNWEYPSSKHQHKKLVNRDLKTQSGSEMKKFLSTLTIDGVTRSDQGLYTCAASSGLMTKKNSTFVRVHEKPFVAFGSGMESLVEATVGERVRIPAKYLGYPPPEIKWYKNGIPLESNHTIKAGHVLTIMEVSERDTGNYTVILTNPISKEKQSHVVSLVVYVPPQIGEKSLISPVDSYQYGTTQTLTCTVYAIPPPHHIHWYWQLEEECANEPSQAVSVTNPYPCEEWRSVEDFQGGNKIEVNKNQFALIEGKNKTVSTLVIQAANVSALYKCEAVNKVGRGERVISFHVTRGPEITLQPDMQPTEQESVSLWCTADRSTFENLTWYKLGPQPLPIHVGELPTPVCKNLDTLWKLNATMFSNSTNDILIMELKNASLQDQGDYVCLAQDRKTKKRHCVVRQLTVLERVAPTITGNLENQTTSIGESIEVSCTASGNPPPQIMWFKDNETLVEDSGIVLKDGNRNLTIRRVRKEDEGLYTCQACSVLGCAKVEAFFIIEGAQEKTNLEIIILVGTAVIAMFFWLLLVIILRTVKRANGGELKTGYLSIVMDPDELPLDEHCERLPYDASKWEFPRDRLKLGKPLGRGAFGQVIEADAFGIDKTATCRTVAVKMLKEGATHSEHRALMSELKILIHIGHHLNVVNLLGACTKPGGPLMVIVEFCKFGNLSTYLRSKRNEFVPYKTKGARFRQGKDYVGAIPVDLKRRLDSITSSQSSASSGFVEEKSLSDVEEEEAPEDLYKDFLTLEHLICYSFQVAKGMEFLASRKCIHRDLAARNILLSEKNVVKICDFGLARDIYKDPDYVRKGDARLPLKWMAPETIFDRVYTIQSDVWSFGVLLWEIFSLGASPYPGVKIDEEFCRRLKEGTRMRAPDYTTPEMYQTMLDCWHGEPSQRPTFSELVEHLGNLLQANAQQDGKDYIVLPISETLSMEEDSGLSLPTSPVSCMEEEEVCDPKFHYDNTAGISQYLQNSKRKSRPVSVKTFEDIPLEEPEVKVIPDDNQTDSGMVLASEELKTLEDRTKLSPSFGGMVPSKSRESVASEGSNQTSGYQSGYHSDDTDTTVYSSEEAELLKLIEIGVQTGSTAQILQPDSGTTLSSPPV
# measurement.protocol: In vitro kinase assay (Z'-LYTE), KDR (VEGFR2)
# Format: biochemical
# settings: read-out: % of inhibition of the kinase compared to the control

These recorded examples may help you get a feel for the data.
Q: Entry CC(=O)c1cc2cc(NCc3cc(NC(=S)Nc4cccc(C(F)(F)F)c4)ccc3C)cnc2[nH]1 [OR1015] : reported inhibition at 0.1 µM = ?
A: < 50%

Q: Next up: Cc1ccc(NC(=O)c2cncc(C(F)(F)F)c2)cc1C(=S)Nc1cnc2[nH]c(C(=O)O)cc2c1 [OR1053]
A: < 50%

New cases:
Q: Entry CC(=O)c1cc2cc(NC(=O)c3cccc(CNC(=O)c4ccc(CN5CCN(C)CC5)c(C(F)(F)F)c4)c3)cnc2[nH]1 [OR0984] : reported inhibition at 0.1 µM = ?
A: < 50%

Q: Next up: CNC(=O)c1cc2cc(NCc3cc(NC(=O)c4ccc(CN5CCC(N(C)C)C5)c(C(F)(F)F)c4)ccc3C)cnc2[nH]1 (centres unmarked) [OR0752]
A: ≥ 50%

Q: Next up: CC(=O)c1cc2cc(NC(=O)c3cccc(CNC(=S)c4cccc(C(F)(F)F)c4)c3)cnc2[nH]1 [OR1012]
A: < 50%

Q: Next up: CC(=O)c1cc2cc(NCc3cccc(C(=O)Nc4cccnc4)c3)cnc2[nH]1 [OR0917]
A: ≥ 50%

Q: Next up: CC(=O)c1cc2cc(NCc3cc(NC(=O)c4ccnc(C)c4)ccc3C)cnc2[nH]1 [OR0889]
A: < 50%

Q: Next up: CC(=O)c1cc2cc(NCc3cc(NC(=O)Cc4cccc(C(F)(F)F)c4)ccc3C)cnc2[nH]1 [OR0968]
A: < 50%

Q: Next up: CC(=O)c1cc2cc(NC(=O)c3cc(NC(=O)c4ccc(CN5CCN(C)CC5)cc4)ccc3C)cnc2[nH]1 [OR0780]
A: < 50%

Q: Next up: CC(=O)c1cc2cc(NCc3cc(NC(=O)c4ccc(CN5CCN(C)CC5)c(F)c4)ccc3C)cnc2[nH]1 [OR0885]
A: ≥ 50%

Q: Next up: CC(=O)c1cc2cc(NCc3cc(NC(=O)c4ccc(CN5CCC(N(C)C)C5)c(F)c4)ccc3C)cnc2[nH]1 (centres unmarked) [OR0973]
A: ≥ 50%

Q: Next up: CC(=O)c1cc2cc(NCc3ccc(F)c(NC(=O)c4cncc(C(F)(F)F)c4)c3)cnc2[nH]1 [OR0894]
A: ≥ 50%

---

# experimental.system: KDR (VEGFR2) (Homo sapiens)
# Construct: purchased Invitrogen
# measurement.protocol: In vitro kinase assay (Z'-LYTE), KDR (VEGFR2)
# Assay type: biochemical
# settings: read-out: % of inhibition of the kinase compared to the control
The following compounds are listed with their measured inhibition at 0.1 µM values.

Q: Entry `CC(=O)c1cc2cc(NCc3cc(NC(=O)c4ccn[nH]4)ccc3C)cnc2[nH]1` : reported inhibition at 0.1 µM = ?
A: ≥ 50%

New cases:
Q: Entry `CC(=O)c1cc2cc(NCc3cc(NC(=O)c4cncc(C(F)(F)F)c4)ccc3C)cnc2[nH]1` : reported inhibition at 0.1 µM = ?
A: ≥ 50%

Q: Next up: `CC(=O)c1cc2cc(NCc3cc(NC(=O)c4cncc(C)c4)ccc3C)cnc2[nH]1`
A: ≥ 50%

Q: Next up: `CC(=O)c1cc2cc(NCc3cc(NC(=O)c4ccnc(C(F)(F)F)c4)ccc3C)cnc2[nH]1`
A: ≥ 50%

Q: Next up: `CNC(=O)c1cc2cc(NCc3cc(NC(=O)c4ccc(CN5CCN(C)CC5)c(C(F)(F)F)c4)ccc3C)cnc2[nH]1`
A: ≥ 50%

Q: Next up: `CC(=O)c1cc2cc(NCc3cc(NC(=O)c4ccc(CN5CCN(C)CC5)c(C(F)(F)F)c4)ccc3C)cnc2[nH]1`
A: ≥ 50%

Q: Next up: `CC(=O)c1cc2cc(NCc3cc(NC(=O)C4CC4)ccc3C)cnc2[nH]1`
A: < 50%

Q: Next up: `CC(=O)c1cc2cc(NCc3cc(NC(=O)c4ccncn4)ccc3C)cnc2[nH]1`
A: < 50%

Q: Next up: `CNC(=O)c1cc2cc(NCc3cc(NC(=O)c4ccc(CN5CCN(C)CC5)cc4)ccc3C)cnc2[nH]1`
A: ≥ 50%

Q: Next up: `CC(=O)c1cc2cc(NCc3cc(NC(=O)c4ccc5[nH]ccc5c4)ccc3C)cnc2[nH]1`
A: < 50%

Q: Next up: `CC(=O)c1cc2cc(NCc3cc(NC(=O)c4ccc(CN5CC[C@H](N(C)C)C5)c(C(F)(F)F)c4)ccc3C)cnc2[nH]1`
A: ≥ 50%
